- Measurement Protocol: Dissociation of chelates in aq. 0.1M HCl at RT (acid decomplexation kinetic inertness) (Chart 20)
- Format: physicochemical
- Particulars: 1 day
Value Kind: fraction of intact chelate (%)

{"columns": ["Compound", "Test Value"],
 "data": [
  ["O=C1C[N@@]2CC[N@]3CC[N@@](CC[N@](CC2)Cc2cccc(n2)-c2cnnn2Cc2cc(-c4ccccc4)cc(n2)C3)CC(=O)[O][Lu][O]1", 100],
  ["O=C1C[N@@]2CC[N@]3CC[N@@](CC[N@](CC2)Cc2cccc(n2)-c2cn(nn2)Cc2cc(-c4ccccc4)cc(n2)C3)CC(=O)[O][Cd][O]1", 99],
  ["O=C1C[N@@]2CC[N@]3CC[N@@](CC[N@](CC2)Cc2cccc(n2)-c2cnnn2Cc2cc(-c4ccccc4)cc(n2)C3)CC(=O)[O][Y][O]1", 100],
  ["O=C1C[N@@]2CC[N@]3CC[N@@](CC[N@](CC2)Cc2cccc(n2)-c2cnnn2Cc2cc(-c4ccccc4)cc(n2)C3)CC(=O)[O][Tm][O]1", 100],
  ["O=C1C[N@@]2CC[N@]3CC[N@@](CC[N@](CC2)Cc2cccc(n2)-c2cnnn2Cc2cc(-c4ccccc4)cc(n2)C3)CC(=O)[O][La][O]1", 4],
  ["O=C1C[N@@]2CC[N@]3CC[N@@](CC[N@](CC2)Cc2cccc(n2)-c2cnnn2Cc2cc(-c4ccccc4)cc(n2)C3)CC(=O)[O][Sm][O]1", 100],
  ["O=C1C[N@@]2CC[N@]3CC[N@@](CC[N@](CC2)Cc2cccc(n2)-c2cnnn2Cc2cc(-c4ccccc4)cc(n2)C3)CC(=O)[O][Ho][O]1", 100],
  ["O=C1C[N@@]2CC[N@]3CC[N@@](CC[N@](CC2)Cc2cccc(n2)-c2cnnn2Cc2cc(-c4ccccc4)cc(n2)C3)CC(=O)[O][Tb][O]1", 100],
  ["O=C1C[N@@]2CC[N@]3CC[N@@](CC[N@](CC2)Cc2cccc(n2)-c2cnnn2Cc2cc(-c4ccccc4)cc(n2)C3)CC(=O)[O][Er][O]1", 100],
  ["O=C([O-])CN1CCN2CCN(CC(=O)[O-])CCN(CC1)Cc1cccc(n1)-c1cnnn1Cc1cc(-c3ccccc3)cc(n1)C2.[Ca+2]", 0]
]}

###

- Measurement Protocol: Formation of 1,5-cz-[Ln(Lig)] from Lig and Ln^III ions (metal dependent click-zip), MOPS/NaOH buffer pH 7.0, analytical HPLC (Charts 1, 2)
- Particulars: Sm^III; after 1 week at 80° C.; MOPS/NaOH buffer pH 7.0
Value Kind: conversion to 1,5-cz-[Ln(Lig)], Sm^III

{"columns": ["Molecule", "Value Kind", "Test Value"],
 "data": [
  ["C#Cc1cccc(CN2CCN(CC(=O)O)CCN(Cc3cccc(CN=[N+]=[N-])n3)CCN(CP(=O)(O)O)CC2)n1 [TD714]", "conversion to 1,5-cz-[Ln(Lig)], Sm^III", "82%"],
  ["CC(C)(N)C#Cc1cccc(CN2CCN(CC(=O)O)CCN(Cc3cc(-c4ccccc4)cc(CN=[N+]=[N-])n3)CCN(CC(=O)O)CC2)n1 [TD1054]", "conversion to 1,5-cz-[Ln(Lig)], Sm^III", "22%"],
  ["C#Cc1cccc(CN2CCN(CC(=O)O)CCN(Cc3cc(Cl)cc(CN=[N+]=[N-])n3)CCN(CC(=O)O)CC2)n1 [TD764]", "conversion to 1,5-cz-[Ln(Lig)], Sm^III", "73%"],
  ["C#Cc1cccc(CN2CCN(CC(=O)O)CCN(Cc3cc(N(C)C)cc(CN=[N+]=[N-])n3)CCN(CC(=O)O)CC2)n1 [TD1176]", "conversion to 1,5-cz-[Ln(Lig)], Sm^III", "92%"],
  ["C#Cc1cccc(CN2CCN(CC(=O)O)CCN(Cc3cccc(CN=[N+]=[N-])n3)CCN(CC(=O)O)CC2)n1 [TD556]", "conversion to 1,5-cz-[Ln(Lig)], Sm^III", "92%"],
  ["[N-]=[N+]=NCc1cccc(CN2CCN(CC(=O)O)CCN(Cc3cccc(C#CC4CC4)n3)CCN(CC(=O)O)CC2)n1 [TD943]", "conversion to 1,5-cz-[Ln(Lig)], Sm^III", "29%"],
  ["C#Cc1cccc(CN2CCN(CC(=O)O)CCN(Cc3cc(-c4ccc(C(=O)O)cc4)cc(CN=[N+]=[N-])n3)CCN(CC(=O)O)CC2)n1 [TD742]", "conversion to 1,5-cz-[Ln(Lig)], Sm^III", "87%"],
  ["[N-]=[N+]=NCc1cccc(CN2CCN(CC(=O)O)CCN(Cc3cccc(C#Cc4ccccc4)n3)CCN(CC(=O)O)CC2)n1 [TD944]", "conversion to 1,5-cz-[Ln(Lig)], Sm^III", "16%"],
  ["[N-]=[N+]=NCc1cc(-c2ccccc2)cc(CN2CCN(CC(=O)O)CCN(Cc3cccc(C#CCN)n3)CCN(CC(=O)O)CC2)n1 [TD722]", "conversion to 1,5-cz-[Ln(Lig)], Sm^III", "9%"],
  ["C#Cc1cccc(CN2CCN(CC(=O)O)CCN(Cc3cc(C(=O)OC(C)C)cc(CN=[N+]=[N-])n3)CCN(CC(=O)O)CC2)n1 [TD1148]", "conversion to 1,5-cz-[Ln(Lig)], Sm^III", "0%"],
  ["[N-]=[N+]=NCc1cccc(CN2CCN(CC(=O)O)CCN(Cc3cccc(C#CC45CC6CC(CC(C6)C4)C5)n3)CCN(CC(=O)O)CC2)n1 [TD992]", "conversion to 1,5-cz-[Ln(Lig)], Sm^III", "55%"],
  ["C#CCN(CC#C)CCN1CCN(CC(=O)O)CCN(Cc2cc(-c3ccccc3)cc(CN=[N+]=[N-])n2)CCN(CC(=O)O)CC1 [TD669]", "conversion to 1,5-cz-[Ln(Lig)], Sm^III", "33%"],
  ["C#Cc1cccc(CN2CCN(CC(N)=O)CCN(Cc3cc(-c4ccccc4)cc(CN=[N+]=[N-])n3)CCN(CC(N)=O)CC2)n1 [TD779]", "conversion to 1,5-cz-[Ln(Lig)], Sm^III", "0%"],
  ["C#CCNC(=O)CN1CCN(CC(=O)O)CCN(Cc2cc(-c3ccccc3)cc(CN=[N+]=[N-])n2)CCN(CC(=O)O)CC1 [TD425]", "conversion to 1,5-cz-[Ln(Lig)], Sm^III", "0%"]
]}

###

- Measurement Protocol: Dissociation of chelates in aq. 1.0M HCl at 80° C. (acid decomplexation kinetic inertness) (Chart 18)
- Assay type: physicochemical
- Particulars: 1 month
Quick reference: fraction of intact chelate of the listed items.
Value Kind: fraction of intact chelate (%)

{"columns": ["Compound", "Value Kind", "Test Value"],
 "data": [
  ["O=C1C[N@@]2CC[N@]3CC[N@@](CC[N@](CC2)Cc2cccc(n2)-c2cnnn2Cc2cc(-c4ccccc4)cc(n2)C3)CC(=O)[O][Tm][O]1", "fraction of intact chelate", 100],
  ["O=C1C[N@@]2CC[N@]3CC[N@@](CC[N@](CC2)Cc2cccc(n2)-c2cnnn2Cc2cc(-c4ccccc4)cc(n2)C3)CC(=O)[O][Dy][O]1", "fraction of intact chelate", 87],
  ["O=C([O-])CN1CCN2CCN(CC(=O)[O-])CCN(CC1)Cc1cccc(n1)-c1cnnn1Cc1cc(-c3ccccc3)cc(n1)C2.[Zn+2]", "fraction of intact chelate", 0],
  ["O=C([O-])CN1CCN2CCN(CC(=O)[O-])CCN(CC1)Cc1cccc(n1)-c1cnnn1Cc1cc(-c3ccccc3)cc(n1)C2.[Pb+2]", "fraction of intact chelate", 0],
  ["O=C1C[N@@]2CC[N@]3CC[N@@](CC[N@](CC2)Cc2cccc(n2)-c2cnnn2Cc2cc(-c4ccccc4)cc(n2)C3)CC(=O)[O][Nd][O]1", "fraction of intact chelate", 0],
  ["O=C1C[N@@]2CC[N@]3CC[N@@](CC[N@](CC2)Cc2cccc(n2)-c2cn(nn2)Cc2cc(-c4ccccc4)cc(n2)C3)CC(=O)[O][Gd][O]1", "fraction of intact chelate", 0],
  ["O=P1(c2ccccc2)C[N@@]2CC[N@]3CC[N@@](CC[N@](CC2)Cc2cccc(n2)-c2cnnn2Cc2cccc(n2)C3)CP(=O)(c2ccccc2)[O][Gd][O]1 (stereo partly drawn)", "fraction of intact chelate", 0],
  ["O=C1C[N@@]2CC[N@]3CC[N@@](CC[N@](CC2)Cc2cccc(n2)-c2cnnn2Cc2cc(-c4ccccc4)cc(n2)C3)CC(=O)[O][Cd][O]1", "fraction of intact chelate", 63],
  ["O=C1C[N@@]2CC[N@]3CC[N@@](CC[N@](CC2)Cc2cccc(n2)-c2cn(nn2)Cc2cc(-c4ccccc4)cc(n2)C3)CC(=O)[O][Cd][O]1", "fraction of intact chelate", 0],
  ["O=C([O-])CN1CCN2CCN(CC(=O)[O-])CCN(CC1)Cc1cccc(n1)-c1cnnn1Cc1cc(-c3ccccc3)cc(n1)C2.[Ca+2]", "fraction of intact chelate", 0],
  ["O=C1C[N@@]2CC[N@]3CC[N@@](CC[N@](CC2)Cc2cccc(n2)-c2cnnn2Cc2cc(-c4ccccc4)cc(n2)C3)CC(=O)[O][Yb][O]1", "fraction of intact chelate", 100],
  ["O=C1C[N@@]2CC[N@]3CC[N@@](CC[N@](CC2)Cc2cccc(n2)-c2cn(nn2)Cc2cc(-c4ccccc4)cc(n2)C3)CC(=O)[O][Lu][O]1", "fraction of intact chelate", 0]
]}

Sourced from patent US20250147039A1
